Recorded values, source PubChem BioAssay.

Can you tell me z-score for the items I'm about to list?
System: Homeobox protein Hox-A13 (Mus musculus) (UniProt Q62424)
Sequence (Q62424 whole entry, looked up): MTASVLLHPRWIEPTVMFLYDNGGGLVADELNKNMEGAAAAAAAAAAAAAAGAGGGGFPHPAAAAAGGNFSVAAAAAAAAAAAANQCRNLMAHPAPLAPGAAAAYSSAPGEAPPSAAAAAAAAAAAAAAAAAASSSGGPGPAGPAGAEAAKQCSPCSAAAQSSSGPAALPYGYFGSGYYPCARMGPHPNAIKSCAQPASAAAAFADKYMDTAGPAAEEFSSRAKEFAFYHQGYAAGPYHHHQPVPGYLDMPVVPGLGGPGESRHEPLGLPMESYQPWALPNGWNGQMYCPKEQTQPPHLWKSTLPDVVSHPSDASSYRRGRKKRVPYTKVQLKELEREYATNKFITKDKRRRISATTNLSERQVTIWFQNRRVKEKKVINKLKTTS
Protocol details: disruptors of Hoxa13 oligonucleotide interaction – biochemical, fluorescence polarization, labeled oligonucleotide, primary screen (AID 1185)
Condition description: Hoxa13:DNA binding, 15 min, higher = more signal, called active from +8 up or from −8 down
Number, no unit, nothing else.

Request: Which measured z-score value corresponds to "COC(=O)[C@@H]1N=C(c2ccc(OCCCO)cc2)O[C@@H]1c1ccccc1" ?
Result: -4.34

Request: Which measured z-score value corresponds to "C=CC[C@@H](OC(=O)Nc1ccc(SC)cc1)c1ccc(O)c(F)c1" ?
Result: -1.19

Request: Which measured z-score value corresponds to CCCCCN1CC=CC23O[C@@H]4/C=C\CCCOC(=O)C4[C@H]2C(=O)N(C(C)CO)[C@@H]3C1=O (some centres undefined) ?
Result: -3.74

Request: Which measured z-score value corresponds to "COc1ccc([Si](C)(C)[C@H]2[C@H](CC(=O)N(CCO)Cc3ccccc3)O[C@@]3(C(=O)N(C)c4c(Br)cc(C)cc43)[C@@H]2C)cc1" ?
Result: -6.1

Request: Which measured z-score value corresponds to O=C(Cc1ccccc1)[C@H]1C2C=CCCC(c3ccccc3)=C2CN1Cc1ccccc1 (some centres undefined) ?
Result: -2.16

Request: Which measured z-score value corresponds to "C=CCNC(=O)[C@@H]1[C@H]2C(=O)O[C@H](c3ccccc3)[C@H](c3ccccc3)N2[C@H](c2ccccc2OCCO)[C@@]12C(=O)Nc1ccc(C#CCCO)cc12" ?
Result: -3.84

Request: Which measured z-score value corresponds to "Cc1ccc(S[C@]2(C(=O)O)CC(=O)N(C3CCCCC3)[C@@H]2c2ccc(CO)cc2I)cc1" ?
Result: -5.25

Request: Which measured z-score value corresponds to "CCOC(=O)C1=CC[C@@H](c2ccccc2F)N(S(=O)(=O)c2ccc(C)cc2)[C@H]1c1ccccc1" ?
Result: 1.41

Request: Which measured z-score value corresponds to "COC(=O)[C@]1(CCS(=O)(=O)c2ccccc2)N=C(c2ccc(OCCCO)cc2)O[C@@H]1c1ccccc1N=[N+]=[N-]" ?
Result: -3.34

====

Protocol details: plasmodial surface anion channel blockers, osmotic lysis – cell-based, P. falciparum Indochina, OD700, 1 h, primary screen (AID 1154)
Condition description: P. falciparum Indochina infected RBC osmotic lysis, higher = more signal, called active from +8 up or from −8 down
Parameter measured: z-score
Number, no unit, nothing else.

Request: Which measured z-score value corresponds to "CCCC=C(CCC)[C@@H](NC(=O)c1cccs1)c1ccc(C(=O)OC)cc1" ?
Result: -1.3

Request: Which measured z-score value corresponds to "C=CCNC(=O)[C@H]1[C@@H]2C(=O)O[C@@H](c3ccccc3)[C@@H](c3ccccc3)N2[C@@H](c2ccccc2OCCO)[C@]12C(=O)N(C(=O)OCCOC)c1ccc(C#CC3(O)CCCCCC3)cc12" ?
Result: 1.58

Request: Which measured z-score value corresponds to "O[C@@H](Cc1ccccc1)[C@@H](/C=C/C1CC1)N(CC#Cc1ccccc1)Cc1ccccc1Br" ?
Result: 2.05

Request: Which measured z-score value corresponds to "NCCCCCNC(=O)[C@H]1C[C@H]2C(=O)N3CCC[C@H]3C(=O)N2[C@H]1c1cccc(OCCO)c1" ?
Result: 3.03

Request: Which measured z-score value corresponds to CCCCCCCCCC(O)C1C=CC2C(=O)N(c3ccccc3)C(=O)C2N1Nc1cc(OC)c(OC)c(OC)c1 (configuration not stated) ?
Result: 7.78

Request: Which measured z-score value corresponds to "C#CCN(Cc1ccccc1Br)[C@H](/C=C/c1ccccc1)[C@@H](O)Cc1ccccc1" ?
Result: 1.22

Request: Which measured z-score value corresponds to CCOc1cc(C(O)C2C=CC3C(=O)NC(=O)C3N2Nc2ccc(Cl)cc2Cl)ccc1O (configuration not stated) ?
Result: 0.588

Request: Which measured z-score value corresponds to "CC#CCO[Si](C#Cc1ccccc1)(C(C)C)C(C)C" ?
Result: 0.175

Request: Which measured z-score value corresponds to "C=CC[C@@H](OC(=O)Nc1ccc(OC)cc1)c1ccc(O)c(F)c1" ?
Result: 2.93

Request: Which measured z-score value corresponds to CCCCN1CC=CC23O[C@@H]4/C=C\CCCOC(=O)C4[C@H]2C(=O)N(CCO)[C@@H]3C1=O (some centres not stated) ?
Result: 0.978

Request: Which measured z-score value corresponds to CS(=O)(=O)CCOC(=O)C1=CC(c2ccc(CO)cc2)=CC(C2CC2)N(Cc2sc3ccccc3c2Cl)C=C1C(=O)OCCS(C)(=O)=O (configuration not stated) ?
Result: 13.8

Request: Which measured z-score value corresponds to "CCOC(=O)C1=CC[C@@H](c2ccccc2)N(S(=O)(=O)c2ccc(C)cc2)[C@H]1c1ccccc1" ?
Result: 1.97

Request: Which measured z-score value corresponds to "CO[C@H]1O[C@H](CO)[C@@H](OC(=O)Nc2ccc(Br)cc2)[C@@H]2OC(=O)[C@@H](Cc3ccccc3)C/C=C/C[C@H](Cc3ccccc3)C(=O)O[C@@H]12" ?
Result: 3.36

Request: Which measured z-score value corresponds to "COC(=O)[C@@]1(Cc2ccc(F)cc2)[C@H]2c3cc(C(=O)N(C)C)n(Cc4ccc(OC(F)(F)F)cc4)c3C[C@H]2CN1C(=O)c1ccccc1" ?
Result: -0.0341

Request: Which measured z-score value corresponds to "C=CCNC(=O)[C@@H]1[C@H]2C(=O)O[C@H](c3ccccc3)[C@H](c3ccccc3)N2[C@H](c2ccccc2OCCO)[C@@]12C(=O)Nc1ccc(C#CCCO)cc12" ?
Result: 5.68

Request: Which measured z-score value corresponds to "NC(=O)[C@H]1[C@@H]2C(=O)O[C@@H](c3ccccc3)[C@@H](c3ccccc3)N2[C@@H](c2ccc(OCCO)cc2)[C@]12C(=O)Nc1ccc(C#CCCO)cc12" ?
Result: 6.95

Request: Which measured z-score value corresponds to "CCCNC(=O)[C@@]1(Sc2ccc(C)cc2)CC(=O)N(C2Cc3ccccc3C2)[C@@H]1c1ccc(CO)cc1I" ?
Result: 9.9

Request: Which measured z-score value corresponds to CC(C)C(O)C1C=CC2C(=O)N(c3ccccc3)C(=O)C2N1Nc1ccccc1 (configuration not stated) ?
Result: 1.2

Request: Which measured z-score value corresponds to "COC(=O)[C@@]1(Cc2ccc(F)cc2)[C@H]2c3cc(C(=O)N4CCCC4)n(CCc4c[nH]c5ccccc45)c3C[C@H]2CN1C(=O)c1ccccc1" ?
Result: 2.02

Request: Which measured z-score value corresponds to CCC1=C2CN(Cc3ccccc3)[C@@H](C(=O)Cc3ccccc3)C2C=CCC1 (some centres not stated) ?
Result: 0.26

Request: Which measured z-score value corresponds to "CCOC(=O)C[C@H]1[C@H](OC(=O)c2ccccc2-c2ccccc2)[C@@H](NC(=O)c2ccc3ccccc3c2)c2cc(OCCCO)ccc2N1C(=O)c1ccccc1" ?
Result: 1.05

Request: Which measured z-score value corresponds to COc1cc2c(cc1O)C(c1ccc(CN3CCCC3)cc1)N(Cc1cc3c(cc1Br)OCO3)CC2 (configuration not stated) ?
Result: 3.92
